Answer each item with its documented TGI.
test system: SK-MEL-5 melanoma; test: NCI tumour cell line growth inhibition, 48 h
Kindly answer with a numeric value in µM, unit omitted.

Enter TGI (test system SK-MEL-5 melanoma) for Cc1nc2sc(CCl)nn2c(=O)c1Cl
18.7

Enter TGI (test system SK-MEL-5 melanoma) for C=C1C(=O)O[C@@H]2C1CC(=O)C(C)CC/C=C(\C)CCC[C@H](C)[C@H]2OC(C)=O (stereo not given in full)
23.6

Enter TGI (test system SK-MEL-5 melanoma) for CC1(C)CCC2(C(=O)OC3OC(CO)C(O)C(O)C3O)CC[C@]3(C)C(=CCC4C5(C)CC[C@H](OC6OC(C(=O)O)C(O)C(O)C6O)C(C)(C)C5CCC43C)C2C1 (stereo not given in full)
1.78

Enter TGI (test system SK-MEL-5 melanoma) for COc1cc2c(cc1OC)-c1ccc3cc4c(cc3c1N(CCN1CCCC1)C2)OCO4
3.09

Enter TGI (test system SK-MEL-5 melanoma) for OCC1OC(n2ccc3c2ncn2ncnc32)C(O)C1O (stereo not given)
50.1

Enter TGI (test system SK-MEL-5 melanoma) for c1ccc2nc(Cn3c[n+](Cc4ccc5ccccc5n4)c4ccccc43)ccc2c1
2.8

Enter TGI (test system SK-MEL-5 melanoma) for O=C(O)C1C(C(=O)O)C2C(=O)C=CC1N2Cc1ccccc1 (stereo not given)
17.2

Enter TGI (test system SK-MEL-5 melanoma) for Fc1c(F)c(C(F)(F)F)c(F)c(F)c1N/N=C\c1c[nH]c2ccccc12
4.04

Enter TGI (test system SK-MEL-5 melanoma) for COc1ccc(Cn2nc(-c3cc(OC)c(OC)c(OC)c3)c3c2CCc2cnoc2-3)cc1OC
12

Enter TGI (test system SK-MEL-5 melanoma) for COc1ccc(/C=C2/C(C)=NN(c3cccc(Cl)c3)/C2=N/c2nc3ccccc3s2)cc1
33.7

Enter TGI (test system SK-MEL-5 melanoma) for CCN(CC)c1ccc(/C=C/c2cc(C)c3ccccc3n2)cc1
11.8

* * *

test system: SF-539 CNS; experiment: NCI tumour cell line growth inhibition, 48 h; in the data active = GI50 below about 0.43 µM; inactive = the rest
Parameter call: string, one of true (1) for active, false (0) for inactive

Outcome? C[C@]12CC[C@H]3[C@@H](CCC4=CC(=O)CC[C@@H]43)[C@@H]1CC[C@@H]2OC(=O)N(CCCl)N=O
true (1)

Outcome? CC(C)(O)c1ccc(N2CCN(c3nnc(Cc4ccccc4)c4ccccc34)CC2)nc1
false (0)

Outcome? O=C1C(Cl)=C(N/N=c2/[nH][nH]/c(=N/NC3=C(Cl)C(=O)c4ccccc4C3=O)c3ccccc23)C(=O)c2ccccc21
false (0)

Outcome? CN(C)CCNC(=O)c1cccn2c(=O)c3cc4ccccc4cc3nc12
true (1)

Outcome? CC1=C(C(=O)OCc2ccccc2)C(c2ccc3c(c2)OCO3)n2c(nc3ccccc32)N1 (configuration not stated)
true (1)

Outcome? CCOC(=O)Cc1c[nH]c(=S)[nH]c1=O
false (0)

Outcome? O=C(CCl)c1ccc([N+](=O)[O-])o1
false (0)

* * *

test system: NCI-H23 lung; experiment: NCI tumour cell line growth inhibition, 48 h
Answer each item with its documented TGI.
Kindly answer with a numeric value in µM, unit omitted.

Give the reported TGI for this compound. NC(=O)OCC(COc1ccc(Cl)cc1)OC(=O)c1ccccc1Cl (stereo not given)
44.8

Give the reported TGI for this compound. COc1ccc(-c2ccc(-c3ccc(C(=N)N)nc3)s2)cc1
3.46

* * *

Answer each item with its documented TGI.
test system: UACC-257 melanoma; assay: NCI tumour cell line growth inhibition, 48 h
Where a SMILES comes first, the peptide text is derived from it. [ ]: non-standard residue; d: D form. Phe(F5) = N[CH](Cc1c(F)c(F)c(F)c(F)c1F)C(=O)O

Give the reported TGI for this compound. C=C(c1ccccc1)C1ON(C)CCc2cc(OC)c(OC)cc21 (stereo not given)
> 100 µM

Give the reported TGI for this compound. COc1cccc(C2=C(c3cn(C)c4ccccc34)C(=O)NC2=O)c1
> 25 µM

Give the reported TGI for this compound. OCC1OC(n2ccc3c2ncn2ncnc32)C(O)C1O (stereo not given)
> 100 µM

Give the reported TGI for this compound. COC(=O)C(CC(C)C)NC(=O)C(Cc1cnc[nH]1)NC(=O)CNC(=O)C(NC(=O)C(C)NC(=O)C(Cc1c[nH]c2ccccc12)NC(=O)C(CCC(=O)O)NC(=O)C(N)Cc1c(F)c(F)c(F)c(F)c1F)C(C)C (stereo not given) (H-[Phe(F5)]EWAVGHL-OMe; configuration not given here)
> 100 µM

Give the reported TGI for this compound. CCOC(=O)CCC(NC(=O)Cc1ccc(Nc2nc3ccccc3nc2-c2ccccc2)cc1)C(=O)OCC (stereo not given)
> 100 µM

Give the reported TGI for this compound. CCOC(=O)c1c2c(n(CC(C)C)c1C)-c1nc[nH]c1C(=O)C2=O
32.3 µM

Give the reported TGI for this compound. Fc1c(F)c(C(F)(F)F)c(F)c(F)c1N/N=C\c1c[nH]c2ccccc12
14.3 µM

Give the reported TGI for this compound. O=C(O)C(=C\c1ccc2c(c1)OCO2)/C(=C/c1ccc2c(c1)OCO2)C(=O)O
> 100 µM

Give the reported TGI for this compound. N#CC(C#N)=Cc1ccc(-c2ccc(-c3nc4ccccc4s3)cc2)o1
> 100 µM

Give the reported TGI for this compound. C=CCC(N[C@H](CO)C(C)C)c1cn(C(=O)OCC)c2ccccc12 (stereo not given in full)
44.2 µM

Give the reported TGI for this compound. Cn1c(=O)c2[nH]c(/N=N/N3CCN(CCO)CC3)nc2n(C)c1=O
> 100 µM

Give the reported TGI for this compound. O=C(O)C1C(C(=O)O)C2C(=O)C=CC1N2Cc1ccccc1 (stereo not given)
11.6 µM

Give the reported TGI for this compound. COc1cc(Br)c(OC)c2c(OC)cc(C)cc12
> 100 µM

Give the reported TGI for this compound. COc1ccc(C2c3cc4c(cc3C(O)C3CCC(=O)N23)OCO4)cc1 (stereo not given)
> 100 µM

Give the reported TGI for this compound. O=c1cc(CNc2cc(F)cc(F)c2)c2ccc(I)cc2[nH]1
> 100 µM

Give the reported TGI for this compound. O=c1[nH]c(=O)n(C2OC(CO)C(O)C(F)C2O)cc1F (stereo not given)
> 100 µM

Give the reported TGI for this compound. CC1CC2OC(=O)C3CC(O)CC(=C23)[C@@]12C[C@@H](c1ccoc1)OC2=O (stereo not given in full)
> 100 µM

Give the reported TGI for this compound. N#CC1(C#N)C2CCCCC23OC(=N)C1(C#N)C(c1ccco1)O3 (stereo not given)
34.9 µM

Give the reported TGI for this compound. CCn1c(-c2nonc2N)nc2cncc(C(=O)N3CCNCC3)c21
> 25 µM

Give the reported TGI for this compound. COc1ccc(OC)c2sc(N3C(=O)/C(=C/Cc4ccco4)N=C3c3ccccc3)nc12
> 100 µM

* * *

system: OVCAR-8 ovarian; assay: NCI tumour cell line growth inhibition, 48 h
Answer each item with its documented TGI.

Give the reported TGI for this compound. NC(=S)NNC(=O)/C(=C/c1ccc(/C=C(\NC(=O)c2ccccc2)C(=O)NNC(N)=S)cc1)NC(=O)c1ccccc1
> 100 µM

Give the reported TGI for this compound. N#CSc1ncnc2nc[nH]c12
> 100 µM

Give the reported TGI for this compound. CC1(Sc2ccccc2)CN(Cc2ccccc2)C1=O (stereo unspecified)
> 100 µM

Give the reported TGI for this compound. CSc1nnc(CCSc2ccnc3c(C(F)(F)F)cccc23)o1
> 100 µM

Give the reported TGI for this compound. Oc1ccccc1/C=N/Nc1nnc2c3ccccc3c3ccccc3c2n1
> 100 µM

Give the reported TGI for this compound. CCn1c(-c2nonc2N)nc2cncc(C(=O)N3CCNCC3)c21
> 25 µM

Give the reported TGI for this compound. CC(C)=CCCC1(C)C=Cc2c(c(C)cc3c2[nH]c2cc(O)ccc23)O1 (stereo unspecified)
> 25 µM

Give the reported TGI for this compound. CCCC(O)[C@@H](O)c1ccc2c(c1O)C(=O)c1c(OC)cccc1C2=O (stereo partly specified)
> 100 µM

Give the reported TGI for this compound. CCc1nnc(CC)n1NCCCC(=O)O
> 100 µM

Give the reported TGI for this compound. CC12CCC=CC1CCC1C2CCC2(C)C(c3ccc(=O)oc3)CCC12O (stereo unspecified)
0.501 µM

Give the reported TGI for this compound. CC1(C)C(=O)N(O)C(C)(C)N1O
> 10 µM

* * *

Where a SMILES comes first, the peptide text is derived from it. [ ]: non-standard residue; d: D form. Phe(F5) = N[CH](Cc1c(F)c(F)c(F)c(F)c1F)C(=O)O
Answer each item with its documented GI50.

Enter GI50 (test system U251 CNS) for C=CCC(N[C@H](CO)C(C)C)c1cn(C(=O)OCC)c2ccccc12 (stereo partly specified)
27.4 µM

Enter GI50 (test system U251 CNS) for N#CC(C#N)=Cc1ccc(-c2ccc(-c3nc4ccccc4s3)cc2)o1
12 µM

Enter GI50 (test system U251 CNS) for COC(=O)C(CC(C)C)NC(=O)C(Cc1cnc[nH]1)NC(=O)CNC(=O)C(NC(=O)C(C)NC(=O)C(Cc1c[nH]c2ccccc12)NC(=O)C(CCC(=O)O)NC(=O)C(N)Cc1c(F)c(F)c(F)c(F)c1F)C(C)C (stereo unspecified) (H-[Phe(F5)]EWAVGHL-OMe; configuration not given here)
> 100 µM

Enter GI50 (test system U251 CNS) for Cc1ccc2[nH]c(C(=O)NN3C(=O)CSC34CCCCC4C)c(-c3ccccc3)c2c1 (stereo unspecified)
16.8 µM

Enter GI50 (test system U251 CNS) for Nc1ncnc2sc(=S)c3c(c12)CCC3
45.8 µM

Enter GI50 (test system U251 CNS) for C=C1C(=O)O[C@@H]2C1CC(=O)C(C)CC/C=C(\C)CCC[C@H](C)[C@H]2OC(C)=O (stereo partly specified)
13.9 µM

// provenance: PubChem BioAssay (NCI)
